Tested on: rodent lifetime carcinogenesis bioassay, tumor incidence TD50
Experiment: carcinogenic potency in animals, long-term in vivo studies, CPDB compilation (AID 1745844)
Conditions: mouse; strain B6C3F1; females; in drinking water; site: all sites; lesion: malignant lymphoma; dosed 104 weeks; study length 107 weeks
readoutLabel: TD50 (mg/kg/day)
Only the number, expressed in mg/kg/day, is required.

Query: Record O=C1CCCCC1 : what is its TD50 with rodent lifetime carcinogenesis bioassay, tumor incidence TD50?
Response: 3690

###

Tested on: rodent lifetime carcinogenesis bioassay, tumor incidence TD50
Assay: carcinogenic potency in animals, long-term in vivo studies, CPDB compilation (AID 1745844)
Details: rat; strain Fischer 344; males; by gavage; site: liver; lesion: cholangiocellular tumor, benign; dosed 30 weeks; study length 65 weeks
readoutLabel: TD50 (mg/kg/day)
Only the number, expressed in mg/kg/day, is required.

Query: Given CN(C)N=O , state its recorded TD50.
Response: 0.822

###

System: rodent lifetime carcinogenesis bioassay, tumor incidence TD50
Assay: carcinogenic potency in animals, long-term in vivo studies, CPDB compilation (AID 1745844)
Details: rat; strain F344/DuCrj; females; in feed; site: any site (literature study); lesion: several types; types named in the paper; dosed 104 weeks; study length 113 weeks
readoutLabel: TD50 (mg/kg/day)
Only the number, expressed in mg/kg/day, is required.

Query: Record S=c1nc[nH]c2nc[nH]c12 : what is its TD50 with rodent lifetime carcinogenesis bioassay, tumor incidence TD50?
Response: 4.74

###

System: rodent lifetime carcinogenesis bioassay, tumor incidence TD50
Assay: carcinogenic potency in animals, long-term in vivo studies, CPDB compilation (AID 1745844)
Conditions: rat; strain Fischer 344; males; in drinking water; site: liver; lesion: hepatocellular adenoma + hepatocellular carcinoma + neoplastic nodule; dosed 88 weeks; study length 92 weeks
readoutLabel: TD50 (mg/kg/day)
Only the number, expressed in mg/kg/day, is required.

Query: Given COc1cc(-c2ccc(N)c(OC)c2)ccc1N , state its recorded TD50.
Response: 7.8

###

System: rodent lifetime carcinogenesis bioassay, tumor incidence TD50
Experiment: carcinogenic potency in animals, long-term in vivo studies, CPDB compilation (AID 1745844)
Details: rat; strain Fischer 344; females; in feed; site: adrenal gland; lesion: cortical adenoma; dosed 104 weeks; study length 105 weeks
readoutLabel: TD50
Just so you know, I need the unit written after the number.

Query: Given COc1ccc(C)cc1N , state its recorded TD50.
Response: 1490 mg/kg/day

###

Test system: rodent lifetime carcinogenesis bioassay, tumor incidence TD50
Test: carcinogenic potency in animals, long-term in vivo studies, CPDB compilation (AID 1745844)
Conditions: rat; strain Fischer 344; females; by gavage; site: liver; lesion: hemangiosarcoma; dosed 121 weeks; study length 121 weeks
readoutLabel: TD50

Query: Given Cc1ccc(S(=O)(=O)OCCN(C)N=O)cc1 , state its recorded TD50.
Response: 12.8 mg/kg/day

###

Test system: rodent lifetime carcinogenesis bioassay, tumor incidence TD50
Assay: carcinogenic potency in animals, long-term in vivo studies, CPDB compilation (AID 1745844)
Details: mouse; strain B6C3F1; females; inhaled; site: nasal cavity, respiratory epithelium; lesion: adenoma; dosed 102 weeks; study length 105 weeks
readoutLabel: TD50 (mg/kg/day)
Only the number, expressed in mg/kg/day, is required.

Query: Given C=CCOCC1CO1 (stereo unspecified) , state its recorded TD50.
Response: 614

###

Tested on: rodent lifetime carcinogenesis bioassay, tumor incidence TD50
Test: carcinogenic potency in animals, long-term in vivo studies, CPDB compilation (AID 1745844)
Settings: mouse; strain B6AKF1; females; oral dosing; site: lung; lesion: carcinoma; dosed 73 weeks; study length 73 weeks
readoutLabel: TD50 (mg/kg/day)
Only the number, expressed in mg/kg/day, is required.

Query: Given CCOC(N)=O , state its recorded TD50.
Response: 89.9

###

System: rodent lifetime carcinogenesis bioassay, tumor incidence TD50
Assay: carcinogenic potency in animals, long-term in vivo studies, CPDB compilation (AID 1745844)
Details: rat; strain Wistar; females; inhaled; site: lung; lesion: squamous-cell tumor; dosed 26 weeks; study length 126 weeks
readoutLabel: TD50
Just so you know, I need the unit written after the number.

Query: Given [Cl][Cd][Cl] , state its recorded TD50.
Response: 0.0998 mg/kg/day

###

Test system: rodent lifetime carcinogenesis bioassay, tumor incidence TD50
Test: carcinogenic potency in animals, long-term in vivo studies, CPDB compilation (AID 1745844)
Conditions: rat; strain Wistar; males; inhaled; site: nose; lesion: squamous-cell carcinoma; dosed 111 weeks; study length 121 weeks
readoutLabel: TD50

Query: Given CC=O , state its recorded TD50.
Response: 627 mg/kg/day

###

System: rodent lifetime carcinogenesis bioassay, tumor incidence TD50
Assay: carcinogenic potency in animals, long-term in vivo studies, CPDB compilation (AID 1745844)
Conditions: rat; strain Fischer 344; males; inhaled; site: mammary gland; lesion: fibroadenoma; dosed 102 weeks; study length 104 weeks
readoutLabel: TD50

Query: Given ClCCl , state its recorded TD50.
Response: 1770 mg/kg/day

###

System: rodent lifetime carcinogenesis bioassay, tumor incidence TD50
Assay: carcinogenic potency in animals, long-term in vivo studies, CPDB compilation (AID 1745844)
Conditions: rat; strain Wistar; females; in feed; site: any site (literature study); lesion: several types; types named in the paper; dosed 104 weeks; study length 104 weeks
The source made the active and inactive calls. How the calls were made is not given here.
readoutLabel: TD50

>>> print(df.to_string())
                              molecule  readoutlabel     assayresult
0  CCn1cc(C(=O)O)c(=O)c2cc3c(cc21)OCO3          TD50  68.5 mg/kg/day

// moving on: another record for TD50
Query: Record C[C@@H]1CCC[C@H](C)N1CCCC(O)(c1ccccc1)c1ccccn1 (some centres not stated) : what is its TD50 with rodent lifetime carcinogenesis bioassay, tumor incidence TD50?
Response: 440 mg/kg/day (inactive)

###

Test system: rodent lifetime carcinogenesis bioassay, tumor incidence TD50
Assay: carcinogenic potency in animals, long-term in vivo studies, CPDB compilation (AID 1745844)
Conditions: rat; strain Wistar; females; inhaled; site: lung; lesion: several types; types named in the paper; dosed 26 weeks; study length 126 weeks
readoutLabel: TD50 (mg/kg/day)
Only the number, expressed in mg/kg/day, is required.

Query: Given [Cl][Cd][Cl] , state its recorded TD50.
Response: 0.0645

###

System: rodent lifetime carcinogenesis bioassay, tumor incidence TD50
Assay: carcinogenic potency in animals, long-term in vivo studies, CPDB compilation (AID 1745844)
Conditions: rat; strain F344/DuCrj; males; in drinking water; site: liver; lesion: cholangioma; dosed 104 weeks; study length 108 weeks
readoutLabel: TD50 (mg/kg/day)
Only the number, expressed in mg/kg/day, is required.

Query: Given CC(=O)OC/C=C(C)/C=C/C=C(C)/C=C/C1=C(C)CCCC1(C)C , state its recorded TD50.
Response: 6470

###

# TD50 listing for each entry below
System: rodent lifetime carcinogenesis bioassay, tumor incidence TD50
Experiment: carcinogenic potency in animals, long-term in vivo studies, CPDB compilation (AID 1745844)
Details: mouse; strain B6AKF1; males; oral dosing; site: any site (literature study); lesion: several types; types named in the paper; dosed 81 weeks; study length 81 weeks
Only the number, expressed in mg/kg/day, is required.

In [3]: df
Out[3]:
                       smilesrepresentation                             assayedsystem  readoutlabel  unitslabel  assayresult
0  CCN(CC)C(=S)S[Se](SC(=S)N(CC)CC)(SC(=S)N(CC)CC)SC(=S)N(CC)CC  rodent lifetime carcinogenesis bioassay, tumor incidence TD50          TD50   mg/kg/day         8.45

// moving on: another record for TD50
Query: Given CCCc1ccc2c(c1)OCO2 , state its recorded TD50.
Response: 86.6

###

Tested on: rodent lifetime carcinogenesis bioassay, tumor incidence TD50
Experiment: carcinogenic potency in animals, long-term in vivo studies, CPDB compilation (AID 1745844)
Settings: mouse; strain BALB/c; females; by gavage; site: liver; lesion: several types; types named in the paper; dosed 30 weeks; study length 49 weeks
readoutLabel: TD50

Query: Given O=NN1CCCCCC1 , state its recorded TD50.
Response: 0.797 mg/kg/day

###

System: rodent lifetime carcinogenesis bioassay, tumor incidence TD50
Assay: carcinogenic potency in animals, long-term in vivo studies, CPDB compilation (AID 1745844)
Conditions: mouse; strain B6C3F1; males; inhaled; site: lung; lesion: alveolar/bronchiolar carcinoma; dosed 60 weeks; study length 60 weeks
readoutLabel: TD50

Query: Given C=CC=C , state its recorded TD50.
Response: 312 mg/kg/day

###

Tested on: rodent lifetime carcinogenesis bioassay, tumor incidence TD50
Test: carcinogenic potency in animals, long-term in vivo studies, CPDB compilation (AID 1745844)
Conditions: mouse; strain D2B6F1 mice; males; in feed; site: liver; lesion: hepatocellular adenoma; dosed 60 weeks; study length 61 weeks
readoutLabel: TD50

Query: Given ClC1=C(Cl)C2(Cl)C3C(Cl)C(Cl)CC3C1(Cl)C2(Cl)Cl (stereo unspecified) , state its recorded TD50.
Response: 2.33 mg/kg/day
